Every entry's value here was drawn from ChEMBL document CHEMBL1201862.

- Tested on: UO-31
- Measurement notes: NCI tumour cell line growth inhibition, 48 h
Active and inactive are the calls of the source. Cut-off read from the data, not from the text of the source: active = GI50 up to about 1.1 µM and inactive = higher.
In this section we review reported GI50 values for a set of compounds.

Compound | System name | GI50
N#Cc1cccc(NC(=O)c2ccc(C(=O)O)c(C(=O)c3ccc(C(=O)O)c(C(=O)Nc4cccc(C#N)c4)c3)c2)c1 | UO-31 | > 100 µM (inactive)

Exercise: What GI50 value was documented for this compound, "O=C1/C(=C/c2ccccc2)CN(C(=O)OCC(Cl)(Cl)Cl)C/C1=C\c1ccccc1" ?
Solution: 3.52 µM (inactive)

Exercise: Next: "COc1ccc2c(c1)[n+]([O-])c(-c1ccc(OC)c(OC)c1)c(N)[n+]2[O-]"
Solution: > 100 µM (inactive)

Exercise: Same read-out for "Cc1cc2c(cc1-c1cc3c(cc1C)C(C(C)C)=C(O)C(=O)/C3=C\Nc1nc(-c3ccccc3)cs1)/C(=C/Nc1nc(-c3ccccc3)cs1)C(=O)C(O)=C2C(C)C" ?
Solution: > 10 µM (inactive)

Exercise: COc1cccc(C2c3cc4c(cc3OC(NNS(=O)(=O)c3ccc(C)cc3)C2C)OCO4)c1O (stereo unspecified) ?
Solution: 18.5 µM (inactive)

Exercise: // query: O=C(CC(C(=O)c1ccoc1)c1ccco1)c1ccco1 (stereo unspecified)
Solution: 65.9 µM (inactive)

---

- Tested on: DU-145
- Measurement notes: NCI tumour cell line growth inhibition, 48 h
Calls of active or inactive are those of the source. Cut-off read from the data, not from the text of the source: active = GI50 up to about 1.1 µM and inactive = higher.
Readout: GI50

Compound | GI50
CC(C)CC1C(=O)NCCC(NC(=O)C(N)Cc2ccc(O)cc2)C(=O)NC(Cc2ccccc2)C(=O)NC(Cc2ccccc2)NC1=O (stereo unspecified) | > 100 µM (inactive)
Cc1cc(O)ccc1C1(c2ccc(F)cc2)OC(=O)c2ccccc21 (stereo unspecified) | 4.61 µM (inactive)
COc1cc(OC)cc(Oc2nc3ccccc3nc2C(=O)O)c1 | > 100 µM (inactive)

Exercise: Form entry - test system: DU-145; read-out: GI50; compound: "COc1cccc(OCC(=N/NC(=O)c2ccncc2)/N=C/c2cccnc2)c1"
Solution: > 100 µM (inactive)

Exercise: Could you do the same for "CCOP(=O)(/C=C/n1cnc2c(=O)n(C(C)=O)c(N)nc21)OCC" , please?
Solution: > 100 µM (inactive)

Exercise: Next: "COC(=O)c1cccc(COc2ccc([N+](=O)[O-])cc2Cl)c1"
Solution: > 100 µM (inactive)

---

- Test system: RXF 393
- Measurement notes: NCI tumour cell line growth inhibition, 48 h
The source made the active and inactive calls. Cut-off read from the data, not from the text of the source: active = GI50 up to about 1.1 µM and inactive = higher.
Readout: GI50

Worked examples follow.
Compound | Result
CCN(CC)/[N+]([O-])=N/O | > 100 µM (inactive)
COc1cccc(-c2cccc(SC)n2)n1 | 18.7 µM (inactive)
CS(C)(=O)=Nn1c(=O)n2n(c1=O)C1c3ccccc3C2c2ccccc21 | > 100 µM (inactive)
CC1(C)C(=O)N(O)C(C)(C)N1N=O | > 10 µM (inactive)
O=C1/C(=C/c2cccc([N+](=O)[O-])c2)N=C(c2ccccc2)N1c1nc2c(Cl)cc(Cl)cc2s1 | 27.9 µM (inactive)
c1ccc2c(c1)CC1c3[nH]c4ccccc4c3CCN21 (stereo not drawn) | > 10 µM (inactive)
CCOC(=O)C(C(=O)c1ccccc1C(=O)OC)=P(c1ccccc1)(c1ccccc1)c1ccccc1 | > 10 µM (inactive)
NC1C[C@H](n2cc(/C=C/Br)c(=O)[nH]c2=O)C[C@@H]1CO (stereo partly drawn) | > 100 µM (inactive)
CN(C)CC/[N+]([O-])=C(/c1ccccc1)C12CC3CC(CC(C3)C1)C2 | 18.2 µM (inactive)
CCOC(=O)NC(=O)c1cn(C2OC(CO)C(O)C2O)c(=O)[nH]c1=O (stereo not drawn) | > 100 µM (inactive)

Exercise: Which GI50 value belongs to Cc1cc(O)nc(NNC(C#N)c2ccc(N(C)C)cc2)n1 (stereo not drawn) ?
Solution: > 100 µM (inactive)

Exercise: Then Cc1cc2c(cc1C)NC1=C(O)C(c3c[nH]c4ccc(COc5ccccc5)cc34)OC1=N2 (stereo not drawn) ?
Solution: 39.6 µM (inactive)

Exercise: Next entry: CCOC(=O)C1C(=O)CC(C)(O)C(C(=O)OCC)C1c1ccc(N(C)C)cc1 (stereo not drawn)
Solution: > 100 µM (inactive)
